- TEST_SYSTEM: 5-LOX (Homo sapiens, UniProt P09917)
- Sequence (P09917 whole entry): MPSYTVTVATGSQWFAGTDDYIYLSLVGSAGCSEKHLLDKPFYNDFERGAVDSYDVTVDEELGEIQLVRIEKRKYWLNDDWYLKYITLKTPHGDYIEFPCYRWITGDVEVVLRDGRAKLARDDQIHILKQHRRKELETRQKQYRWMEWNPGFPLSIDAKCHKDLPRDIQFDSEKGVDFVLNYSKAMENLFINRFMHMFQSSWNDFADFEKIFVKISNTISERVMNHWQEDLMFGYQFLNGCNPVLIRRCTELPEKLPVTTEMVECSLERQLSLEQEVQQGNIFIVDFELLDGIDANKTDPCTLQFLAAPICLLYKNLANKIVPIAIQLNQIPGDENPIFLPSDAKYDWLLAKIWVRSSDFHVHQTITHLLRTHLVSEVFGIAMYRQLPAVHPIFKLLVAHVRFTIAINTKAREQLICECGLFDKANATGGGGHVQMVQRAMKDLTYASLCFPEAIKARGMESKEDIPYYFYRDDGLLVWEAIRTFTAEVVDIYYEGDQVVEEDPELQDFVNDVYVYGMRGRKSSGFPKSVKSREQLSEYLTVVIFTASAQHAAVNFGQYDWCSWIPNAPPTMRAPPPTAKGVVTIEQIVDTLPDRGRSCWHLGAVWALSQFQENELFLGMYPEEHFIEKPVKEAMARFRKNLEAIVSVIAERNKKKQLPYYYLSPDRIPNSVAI
- ASSAY_PROTOCOL: fluorescence-based enzyme assay of human 5-LOX (Table 3)
- Format: biochemical
- STATED_CONDITIONS: 3 μM
For each of the compounds below, state its inhibition at 3 µM.
Unit % implied. Number only.

Specify the recorded inhibition at 3 µM for Fc1ccc2[nH]c3c(OC[C@@H]4C[C@H](F)CN4)c4[nH]c5ccc(F)cc5c4cc3c2c1 [drawing 19] , system: 5-LOX (Homo sapiens, UniProt P09917).
87

Check 5-LOX (Homo sapiens, UniProt P09917) data and give inhibition at 3 µM for "Fc1ccc2[nH]c3c(OC[C@@H]4CCCN4)c4[nH]c5ccc(F)cc5c4cc3c2c1" .
92

# assay system 5-LOX (Homo sapiens, UniProt P09917): give inhibition at 3 µM of N=C(N)NCCCOc1c2[nH]c3ccc(F)cc3c2cc2c1[nH]c1ccc(F)cc12 [drawing 11]
95

Lab note: 5-LOX (Homo sapiens, UniProt P09917) assay, enter inhibition at 3 µM for Fc1ccc2[nH]c3c(OC4CCNC4)c4[nH]c5ccc(F)cc5c4cc3c2c1 (centres unmarked) [drawing 12] here
86

Consider the compound Fc1ccc2[nH]c3c(OCC4CCCN4)c4[nH]c5ccc(F)cc5c4cc3c2c1 (centres unmarked) [drawing 14] tested on 5-LOX (Homo sapiens, UniProt P09917); state its inhibition at 3 µM.
94

State inhibition at 3 µM on 5-LOX (Homo sapiens, UniProt P09917). Entry: Fc1ccc2[nH]c3c(OCC4CCCN4)c4[nH]c5ccc(F)cc5c4c(C(F)(F)F)c3c2c1 (centres unmarked) [drawing 17]
77

Name the recorded inhibition at 3 µM of "Fc1ccc2[nH]c3c(OC[C@H]4CCCN4)c4[nH]c5ccc(F)cc5c4c(Cl)c3c2c1" , assay system 5-LOX (Homo sapiens, UniProt P09917).
91

Find the measured inhibition at 3 µM of CCOC(=O)c1ccc2[nH]c3c(O[C@H]4CCNC4)c4[nH]c5ccc(C(=O)OCC)cc5c4cc3c2c1 [drawing 20] with 5-LOX (Homo sapiens, UniProt P09917) as test system.
37

----------
- TEST_SYSTEM: human 12-LOX (Homo sapiens, UniProt P18054)
- Construct: ferric oxidation of xylenol orange from arachidonic acid in human blood platelets; endogenous in cells; host or cells: human blood platelets
- Sequence (P18054 whole entry): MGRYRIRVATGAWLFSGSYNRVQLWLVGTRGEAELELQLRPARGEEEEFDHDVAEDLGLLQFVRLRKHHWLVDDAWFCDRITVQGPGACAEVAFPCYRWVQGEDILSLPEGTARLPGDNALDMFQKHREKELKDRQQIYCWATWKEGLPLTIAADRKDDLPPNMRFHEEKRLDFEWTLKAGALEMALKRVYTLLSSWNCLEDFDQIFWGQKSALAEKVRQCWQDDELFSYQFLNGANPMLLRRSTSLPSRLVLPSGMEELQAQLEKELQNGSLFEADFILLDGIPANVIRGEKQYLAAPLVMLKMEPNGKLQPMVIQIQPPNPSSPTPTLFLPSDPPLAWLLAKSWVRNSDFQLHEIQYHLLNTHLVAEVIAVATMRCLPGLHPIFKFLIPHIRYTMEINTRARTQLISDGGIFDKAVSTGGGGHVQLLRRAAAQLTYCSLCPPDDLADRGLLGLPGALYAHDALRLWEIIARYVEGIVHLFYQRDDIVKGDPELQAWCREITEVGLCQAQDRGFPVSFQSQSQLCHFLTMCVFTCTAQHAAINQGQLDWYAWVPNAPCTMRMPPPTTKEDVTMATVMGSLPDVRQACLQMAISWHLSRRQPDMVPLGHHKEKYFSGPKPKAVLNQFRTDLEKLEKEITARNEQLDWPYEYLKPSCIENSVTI
- ASSAY_PROTOCOL: colorimetric platelet 12-LOX activity assay (ferric oxidation of xylenol orange, human blood platelets)
- Type: cell-based
- STATED_CONDITIONS: 3 μM
ASSAY_METRIC: inhibition at 3 µM
Lab note: write values as number then unit, every time.

Give the reported inhibition at 3 µM for this molecule. Fc1ccc2[nH]c3c(OCC4CCCN4)c4[nH]c5ccc(F)cc5c4cc3c2c1 (stereo not shown) [drawing 14]
78%

Look up and state reported inhibition at 3 µM for CN(C)CCOc1c2[nH]c3ccc(F)cc3c2cc2c1[nH]c1ccc(F)cc12 [drawing 7]
78%

Complete the entry with inhibition at 3 µM for CCOC(=O)c1ccc2[nH]c3c(O[C@H]4CCNC4)c4[nH]c5ccc(C(=O)OCC)cc5c4cc3c2c1 [drawing 20]
75%

Output measured inhibition at 3 µM for this item: "Cc1c2[nH]c3ccccc3c2cc2c1[nH]c1ccccc12"
76%

Provide measured inhibition at 3 µM value, entry: Clc1ccc2[nH]c3c(OCC4CCCN4)c4[nH]c5ccc(Cl)cc5c4cc3c2c1 (stereo not shown) [drawing 13]
79%

Report inhibition at 3 µM, nothing else, for this molecule: Nc1nnn(CCOc2c3[nH]c4ccc(Cl)cc4c3cc3c2[nH]c2ccc(Cl)cc23)n1 [drawing 9]
77%

Input Fc1ccc2[nH]c3c(OC[C@@H]4C[C@H](F)CN4)c4[nH]c5ccc(F)cc5c4cc3c2c1 [drawing 19] , output reported inhibition at 3 µM.
87%

----------
- TEST_SYSTEM: 5-LOX (Homo sapiens)
- ASSAY_PROTOCOL: fluorescence-based enzyme assay of human 5-LOX (Table 3)
- Assay type: biochemical
- STATED_CONDITIONS: 3 μM
Label MET when inhibition at 3 µM is at or above 80%; otherwise label NOT MET.

Decide: inhibition at 3 µM of CN(C)CCOc1c2[nH]c3ccc(F)cc3c2cc2c1[nH]c1ccc(F)cc12 [drawing 7] >= 80%?
MET

I'd appreciate it if you could say whether "Cc1c2[nH]c3ccccc3c2cc2c1[nH]c1ccccc12" has inhibition at 3 µM at least equal to 80%.
NOT MET

Could you tell me if the measured inhibition at 3 µM of Nc1nnnn1CCOc1c2[nH]c3ccc(Cl)cc3c2cc2c1[nH]c1ccc(Cl)cc12 [drawing 10] reaches 80% or more?
MET

Test whether the compound CN(C)CCOc1c2[nH]c3ccc(F)cc3c2c(Cl)c2c1[nH]c1ccc(F)cc12 [drawing 18] records inhibition at 3 µM of 80% or higher.
NOT MET

Given the entry Clc1ccc2[nH]c3c(OCCCn4cncn4)c4[nH]c5ccc(Cl)cc5c4cc3c2c1 [drawing 8] , answer whether its inhibition at 3 µM meets or surpasses 80%.
MET

Identify whether the reported inhibition at 3 µM of the following compound is 80% or greater: Nc1nnn(CCOc2c3[nH]c4ccc(Cl)cc4c3cc3c2[nH]c2ccc(Cl)cc23)n1 [drawing 9]
NOT MET

----------
- System: amyloid-beta (Abeta) formation
- ASSAY_PROTOCOL: secreted Abeta40/Abeta42 ELISA in N2A-APPswe cells
- Format: cell-based
- STATED_CONDITIONS: Mus musculus, 24 hours treatment, read-out: Abeta 40 formation (% of control)
ASSAY_METRIC: activity at 5 µM (%)
Lab book: enter the figure in %, no units written.

Hello, please tell me recorded activity at 5 µM for this one: Nc1nnn(CCOc2c3[nH]c4ccc(Cl)cc4c3cc3c2[nH]c2ccc(Cl)cc23)n1 [drawing 26]
86

Tell us which activity at 5 µM value is on record for Fc1ccc2[nH]c3c(OC[C@@H]4C[C@H](F)CN4)c4[nH]c5ccc(F)cc5c4cc3c2c1 [drawing 34]
93

In one line, give reported activity at 5 µM of the entry "Fc1ccc2[nH]c3c(OCCN4CC[C@H](F)C4)c4[nH]c5ccc(F)cc5c4cc3c2c1" .
75

For the compound CCOC(=O)c1ccc2[nH]c3c(O[C@H]4CCNC4)c4[nH]c5ccc(C(=O)OCC)cc5c4cc3c2c1 [drawing 35] , report activity at 5 µM.
70

----------
- TEST_SYSTEM: human 12-LOX (Homo sapiens, UniProt P18054)
- Construct: ferric oxidation of xylenol orange from arachidonic acid in human blood platelets; endogenous in cells; host or cells: human blood platelets
- ASSAY_PROTOCOL: colorimetric platelet 12-LOX activity assay (ferric oxidation of xylenol orange, human blood platelets)
- Format: cell-based
- STATED_CONDITIONS: 3 μM
ASSAY_METRIC: inhibition at 3 µM (%)
Record the value in %, omitting the unit from your answer.

# return recorded inhibition at 3 µM for entry Nc1nnnn1CCOc1c2[nH]c3ccc(Cl)cc3c2cc2c1[nH]c1ccc(Cl)cc12 [drawing 10]
73

Give recorded inhibition at 3 µM. Fc1ccc2[nH]c3c(OCC4CCCN4)c4[nH]c5ccc(F)cc5c4c(C(F)(F)F)c3c2c1 (centres unmarked) [drawing 17]
77

Please give measured inhibition at 3 µM of the following entry: "Fc1ccc2[nH]c3c(OC[C@@H]4CCCN4)c4[nH]c5ccc(F)cc5c4cc3c2c1"
88

Output inhibition at 3 µM of "Fc1ccc2[nH]c3c(OC[C@H]4CCCN4)c4[nH]c5ccc(F)cc5c4c(Cl)c3c2c1"
80

Dear colleague, please send me the reported inhibition at 3 µM for Fc1ccc2[nH]c3c(OC4CCNC4)c4[nH]c5ccc(F)cc5c4cc3c2c1 (centres unmarked) [drawing 12] when you can.
80

For the molecule CN(C)CCOc1c2[nH]c3ccc(F)cc3c2c(Cl)c2c1[nH]c1ccc(F)cc12 [drawing 18] , give its reported inhibition at 3 µM.
85

Complete the entry with inhibition at 3 µM for Clc1ccc2[nH]c3c(OCCCn4cncn4)c4[nH]c5ccc(Cl)cc5c4cc3c2c1 [drawing 8]
89

Answer with the recorded inhibition at 3 µM for the molecule listed here: N=C(N)NCCCOc1c2[nH]c3ccc(F)cc3c2cc2c1[nH]c1ccc(F)cc12 [drawing 11]
79

----------
- Test system: amyloid-beta (Abeta) formation
- ASSAY_PROTOCOL: secreted Abeta40/Abeta42 ELISA in N2A-APPswe cells
- Assay type: cell-based
- STATED_CONDITIONS: Mus musculus, 24 hours treatment, read-out: Abeta 40 formation (% of control)
Each record gets a class by activity at 5 µM: LOW: < 70%; MEDIUM: ≥ 70% and < 80%; HIGH: ≥ 80%

Dear colleague, I would appreciate it if you could identify the bin for Fc1ccc2[nH]c3c(OCC4CCCN4)c4[nH]c5ccc(F)cc5c4cc3c2c1 (centres unmarked) [drawing 36] and reply at your convenience.
LOW

State the class of the molecule shown: "c1ccc2c(c1)[nH]c1c(OCCCN3CCOCC3)c3[nH]c4ccccc4c3cc12"
HIGH

Lab note: which band did "Fc1ccc2[nH]c3c(OCCn4cncn4)c4[nH]c5ccc(F)cc5c4cc3c2c1" land in?
LOW

Class for "F[C@@H]1CN[C@H](COc2c3[nH]c4ccc(Cl)cc4c3cc3c2[nH]c2ccc(Cl)cc23)C1" ?
LOW

Categorize the following entry: Fc1ccc2[nH]c3c(OCC4CCCN4)c4[nH]c5ccc(F)cc5c4c(C(F)(F)F)c3c2c1 (centres unmarked) [drawing 32]
HIGH

Assign a bin to "Cc1nnn(CCOc2c3[nH]c4ccc(F)cc4c3cc3c2[nH]c2ccc(F)cc23)n1"
LOW

In plain terms, what class is "Cc1nnnn1CCOc1c2[nH]c3ccc(F)cc3c2cc2c1[nH]c1ccc(F)cc12" ?
LOW

Field: class (activity at 5 µM) — entry: "COc1c2[nH]c3ccc(F)cc3c2c(N2CCOCC2)c2c1[nH]c1ccc(F)cc12"
MEDIUM

Bin this entry: Fc1ccc2[nH]c3c(OCC4CCCN4)c4[nH]c5ccc(F)cc5c4c(Cl)c3c2c1 (centres unmarked)
HIGH

Assign a category based on measured activity at 5 µM for Clc1ccc2[nH]c3c(OCCCn4cncn4)c4[nH]c5ccc(Cl)cc5c4cc3c2c1 [drawing 25] and give only the class name.
LOW

Class label required: Fc1ccc2[nH]c3c(OCC4CCCO4)c4[nH]c5ccc(F)cc5c4cc3c2c1 (centres unmarked)
MEDIUM

Please classify: "N=C(N)NCCCOc1c2[nH]c3ccc(Cl)cc3c2cc2c1[nH]c1ccc(Cl)cc12"
MEDIUM
